Below: a set of entries, each annotated with reported log10(EC50).
System: Plasmodium falciparum
Assay: Antiplasmodial activity against Plasmodium falciparum 3D7 assessed as reduction in parasitemia incubated for 48 hrs supplemented with fresh medium containing compound at 24 hrs by LSR II FACS method
Assay type: functional, organism-based
Parameter value (number): base-10 log of EC50 in µM.

>>> df
                               smiles_entry  measurement
0          CCCCC(F)(F)/C(O)=C/C(=O)c1cccnc1         1.30
1  COc1ccc(C(=O)/C=C(\O)C(F)(F)C(F)(F)F)cn1         0.59
2      O=C(/C=C(\O)C(F)(F)C(F)(F)F)c1cccnc1        -0.62
3  O=C(/C=C(\O)C(F)(F)C(F)(F)F)c1ccc(Cl)cn1         1.15

// below: log10(EC50) requested for another molecule
// log10(EC50) lookup, key: `O=C(/C=C(\O)C(F)(F)C(F)(F)F)c1ccccn1`
1.13

Data origin, for the record: ChEMBL document CHEMBL4725373
